Assay: The drug is tested on Eubacterium hallii strain: DSM3353 for biotransformation. The drug concentrations were measured before and after a 12-h incubation by liquid-chromatography-coupled mass spectrometry (LC–MS)
Conditions: anaerobutyricum hallii, 2 µM
Attribute measured: Bacterial Biotransformation

Check out these entries, answers already filled in.
                                   compound               test_result
0  CN1C(=O)CC(C)(c2ccccc2)C1=O (stereo unspecified) [METHSUXIMIDE]  Compound NOT metabolized
1  OCCN1CCN(CCCN2c3ccccc3Sc3ccc(C(F)(F)F)cc32)CC1      Compound metabolized
2  OCCN(CCO)c1nc(N2CCCCC2)c2nc(N(CCO)CCO)nc(N3CCCCC3)c2n1  Compound NOT metabolized
3  CCOC(=O)C1=C(C)NC(C)=C(C(=O)OC)C1c1cccc([N+](=O)[O-])c1 (stereo unspecified)      Compound metabolized
4       Cc1cc2c(s1)Nc1ccccc1N=C2N1CCN(C)CC1  Compound NOT metabolized

# input compound: `CN1CCN(CC/C=C2/c3ccccc3Sc3ccc(S(=O)(=O)N(C)C)cc32)CC1` ; wanted: its Bacterial Biotransformation
Compound NOT metabolized

# input compound: CC(C)NCC(O)COc1ccc(CCOCC2CC2)cc1 (stereo unspecified) ; wanted: its Bacterial Biotransformation
Compound NOT metabolized

# input compound: `CNC(=C[N+](=O)[O-])NCCSCc1ccc(CN(C)C)o1` ; wanted: its Bacterial Biotransformation
Compound metabolized

# input compound: OC(c1cc(C(F)(F)F)nc2c(C(F)(F)F)cccc12)C1CCCCN1 (stereo unspecified) ; wanted: its Bacterial Biotransformation
Compound NOT metabolized

# input compound: CC(C)[C@H]1CC[C@H](C(=O)N[C@H](Cc2ccccc2)C(=O)O)CC1 [NATEGLINIDE] ; wanted: its Bacterial Biotransformation
Compound NOT metabolized

Provenance of the data: ChEMBL document CHEMBL5303573
